System: MDA-MB-453
Assay: normalised response (% of control), CellTox Green; higher = less cell death (100 = DMSO, 0 = benzethonium chloride kill control)
Conditions: incubation time: 72 h
test.readout: normalised response (%)

>>> numeric_result("COc1cc2/c(=N/c3ccc(Br)cc3F)nc[nH]c2cc1OCC1CCN(C)CC1 [Vandetanib] (10 nM)")
80.8
>>> numeric_result("Cc1cc(Nc2cc(CN3CCOCC3)c3nc(C)c(Cc4ccc(Cl)cc4F)n3n2)n[nH]1 [Gandotinib] (1000 nM)")
107
>>> numeric_result("Cc1ccc(NC(=O)c2ccc(CN3CCN(C)CC3)cc2)cc1Nc1nc(-c2cccnc2)cs1 [Masitinib] (100 nM)")
103
>>> numeric_result("Cc1[nH]c2ccccc2c1CCNCc1ccc(/C=C/C(=O)NO)cc1 [Panobinostat] (10 nM)")
81.9

* * *

Tested on: HDQ-P1
Experiment: normalised response (% of control), CellTox Green; higher = less cell death (100 = DMSO, 0 = benzethonium chloride kill control)
Settings: incubation time: 72 h
test.readout: normalised response

>>> result("COc1cc(O)c2c(c1)/C=C/C[C@H](O)[C@H](O)C(=O)/C=C\\C[C@H](C)OC2=O [(5Z)-7-Oxozeaenol] (10000 nM)")
"87.9%"
>>> result("CC(C)C[C@@H](C(=O)N[C@H](C(=O)OC1CCCC1)c1ccccc1)[C@H](O)C(=O)NO [Tosedostat] (100 nM)")
"76.4%"
>>> result("COCC[n+]1c2c(n(Cc3cnccn3)c1C)C(=O)c1ccccc1C2=O [YM155] (100 nM)")
"-5.41%"
>>> result("COc1cc2c(NC3CCN(C(C)C)CC3)nc(N3CCC(F)(F)CC3)nc2cc1OCCCN1CCCC1 [UNC0642] (100 nM)")
"80.7%"

* * *

Entries and their normalised response values follow.
Tested on: MCF-10A
Assay: normalised response (% of control), CellTiter-Glo; higher = more viable cells (100 = DMSO, 0 = benzethonium chloride kill control)
Details: incubation time: 72 h
test.readout: normalised response (%)

>>> numeric_result("COC(=O)c1ccc2c(c1)NC(=O)/C2=C(\\Nc1ccc(N(C)C(=O)CN2CCN(C)CC2)cc1)c1ccccc1 [Nintedanib] (1 nM)")
103
>>> numeric_result("CNC(=O)c1ccc(N2C(=S)N(c3ccc(C#N)c(C(F)(F)F)c3)C(=O)C23CCC3)cc1F [RD162] (1 nM)")
102
>>> numeric_result("O=C(Nc1cccnc1)N1CCC(Cc2cccc(Oc3ccc(C(F)(F)F)cn3)c2)CC1 [PF-3845] (1 nM)")
113
>>> numeric_result("O=P1(N(CCCl)CCCl)NCCCO1 (stereo not given) [Cyclophosphamide] (4000 nM)")
103
>>> numeric_result("NC(=O)c1ccc(I)c([N+](=O)[O-])c1 [Iniparib] (10 nM)")
81.3
>>> numeric_result("CNC(=O)c1cccc(-c2ccc3c(N4CCOC[C@@H]4C)nc(N4CCOC[C@@H]4C)nc3n2)c1 [AZD2014] (10 nM)")
111
>>> numeric_result("CCOC(=O)CCNc1cc(N2CCc3ccccc3CC2)nc(-c2ccccn2)n1 [GSK-J4] (100 nM)")
97.3
>>> numeric_result("CO[C@H]1C[C@@H]2CC[C@@H](C)[C@@](O)(O2)C(=O)C(=O)N2CCCC[C@H]2C(=O)O[C@H]([C@H](C)C[C@@H]2CC[C@@H](OP(C)(C)=O)[C@H](OC)C2)CC(=O)[C@H](C)/C=C(\\C)[C@@H](O)[C@@H](OC)C(=O)[C@H](C)C[C@H](C)/C=C/C=C/C=C/1C [Ridaforolimus] (0.01 nM)")
104
>>> numeric_result("O=C(/C=C/c1cccc(S(=O)(=O)Nc2ccccc2)c1)NO [Belinostat] (1000 nM)")
55.6
>>> numeric_result("CO[C@H]1C[C@@H]2CC[C@@H](C)[C@@](O)(O2)C(=O)C(=O)N2CCCC[C@H]2C(=O)O[C@H]([C@H](C)C[C@@H]2CC[C@@H](OP(C)(C)=O)[C@H](OC)C2)CC(=O)[C@H](C)/C=C(\\C)[C@@H](O)[C@@H](OC)C(=O)[C@H](C)C[C@H](C)/C=C/C=C/C=C/1C [Ridaforolimus] (10 nM)")
89.5
>>> numeric_result("CC(C)C[C@@H](C(=O)N[C@H](C(=O)OC1CCCC1)c1ccccc1)[C@H](O)C(=O)NO [Tosedostat] (1000 nM)")
87.3
>>> numeric_result("COc1cc2/c(=N/c3ccc(Br)cc3F)nc[nH]c2cc1OCC1CCN(C)CC1 [Vandetanib] (0.1 nM)")
72.8
>>> numeric_result("COCC1(CO)C(=O)C2CCN1CC2 (stereo not given) [Prima-1 Met] (1 nM)")
108
>>> numeric_result("COc1cc2/c(=N/c3ccc(Br)cc3F)nc[nH]c2cc1OCC1CCN(C)CC1 [Vandetanib] (100 nM)")
57.3
>>> numeric_result("O=C(Nc1ccncc1)C(=O)c1cn(Cc2ccc(Cl)cc2)c2ccccc12 [Indibulin] (1 nM)")
101
>>> numeric_result("N#Cc1ccc(COC[C@H]2O[C@@H](n3c(NCc4ccc(Cl)c(Cl)c4)nc4c(N)ncnc43)[C@H](O)[C@@H]2O)cc1 (1 nM)")
112
>>> numeric_result("CNC(=O)c1ccc(N2C(=S)N(c3ccc(C#N)c(C(F)(F)F)c3)C(=O)C2(C)C)cc1F [Enzalutamide] (10 nM)")
106
>>> numeric_result("NC(=O)c1ccc(I)c([N+](=O)[O-])c1 [Iniparib] (1000 nM)")
82
>>> numeric_result("Cc1[nH]c2ccccc2c1CCNCc1ccc(/C=C/C(=O)NO)cc1 [Panobinostat] (100 nM)")
49.1
>>> numeric_result("c1ccc2c(CCNc3ccc(Nc4ccncc4)cc3)c[nH]c2c1 [Serdemetan] (1 nM)")
86.1
>>> numeric_result("Cc1cc(Nc2cc(CN3CCOCC3)c3nc(C)c(Cc4ccc(Cl)cc4F)n3n2)n[nH]1 [Gandotinib] (10 nM)")
108
>>> numeric_result("Nc1cc(C(F)(F)F)c(-c2cc(N3CCOCC3)nc(N3CCOCC3)n2)cn1 [Buparlisib] (1000 nM)")
55.6
>>> numeric_result("Oc1ccc2c(c1)CC[C@H](c1ccccc1)[C@@H]2c1ccc(OCCN2CCCC2)cc1 [Lasofoxifene] (1 nM)")
104
>>> numeric_result("CCn1c(-c2nonc2N)nc2cnc(Oc3cccc(NC(=O)c4ccc(OCCN5CCOCC5)cc4)c3)cc21 (10 nM)")
89
>>> numeric_result("Cc1cc(Nc2cc(CN3CCOCC3)c3nc(C)c(Cc4ccc(Cl)cc4F)n3n2)n[nH]1 [Gandotinib] (1 nM)")
107
>>> numeric_result("COCC[n+]1c2c(n(Cc3cnccn3)c1C)C(=O)c1ccccc1C2=O [YM155] (10 nM)")
88.1
>>> numeric_result("COc1cc(OC2CCN(C)CC2)ccc1Nc1ncc2c(n1)n(C1CCCC1)c(=O)n2C [AZ 3146] (10 nM)")
95.5
>>> numeric_result("COc1cc(O)c2c(c1)/C=C/C[C@H](O)[C@H](O)C(=O)/C=C\\C[C@H](C)OC2=O [(5Z)-7-Oxozeaenol] (1000 nM)")
56.9
>>> numeric_result("O=P1(N(CCCl)CCCl)NCCCO1 (stereo not given) [Cyclophosphamide] (40 nM)")
102
>>> numeric_result("CNC(=O)c1ccc(N2C(=S)N(c3ccc(C#N)c(C(F)(F)F)c3)C(=O)C2(C)C)cc1F [Enzalutamide] (1000 nM)")
107

* * *

Tested on: BT-474
Experiment: drug sensitivity score (DSS), CellTiter-Glo (DSS (AUC-based score)); higher = stronger drug effect (viability inhibition or cytotoxicity); extreme values may be limits of the assay
Settings: incubation time: 72 h
drug sensitivity score values by entry
test.readout: drug sensitivity score

>>> numeric_result("COc1cc2ncnc(Nc3ccc(F)c(Cl)c3)c2cc1OCCCN1CCOCC1 [Gefitinib]")
0
>>> numeric_result("COC(=O)c1ccc2c(c1)NC(=O)/C2=C(\\Nc1ccc(N(C)C(=O)CN2CCN(C)CC2)cc1)c1ccccc1 [Nintedanib]")
5.02
>>> numeric_result("O=C(Nc1ccncc1)C(=O)c1cn(Cc2ccc(Cl)cc2)c2ccccc12 [Indibulin]")
4.97

* * *

Reported drug sensitivity score values follow for various compounds
Test system: HDQ-P1
Assay: drug sensitivity score (DSS), CellTiter-Blue viability (DSS (AUC-based score)); higher = stronger viability inhibition; extreme values may be limits of the assay
Conditions: incubation time: 72 h
test.readout: drug sensitivity score

>>> result("O=C(/C=C/c1cccc(S(=O)(=O)Nc2ccccc2)c1)NO [Belinostat]")
11.8
>>> result("CN(C)CCOc1ccc(/C(=C(/CCCl)c2ccccc2)c2ccccc2)cc1 [Toremifene]")
0
>>> result("c1ccc2c(CCNc3ccc(Nc4ccncc4)cc3)c[nH]c2c1 [Serdemetan]")
0
>>> result("CO[C@H]1C[C@@H]2CC[C@@H](C)[C@@](O)(O2)C(=O)C(=O)N2CCCC[C@H]2C(=O)O[C@H]([C@H](C)C[C@@H]2CC[C@@H](OP(C)(C)=O)[C@H](OC)C2)CC(=O)[C@H](C)/C=C(\\C)[C@@H](O)[C@@H](OC)C(=O)[C@H](C)C[C@H](C)/C=C/C=C/C=C/1C [Ridaforolimus]")
7.08
>>> result("Cc1ccc(NC(=O)c2ccc(CN3CCN(C)CC3)cc2)cc1Nc1nc(-c2cccnc2)cs1 [Masitinib]")
0
>>> result("CN(C)c1nc(N(C)C)nc(N(C)C)n1 [Altretamine]")
0
>>> result("O=P1(N(CCCl)CCCl)NCCCO1 (configuration not stated) [Cyclophosphamide]")
0
>>> result("NC(=O)c1ccc(I)c([N+](=O)[O-])c1 [Iniparib]")
0
>>> result("CC(C)C[C@@H](C(=O)N[C@H](C(=O)OC1CCCC1)c1ccccc1)[C@H](O)C(=O)NO [Tosedostat]")
4.23
>>> result("COC(=O)c1ccc2c(c1)NC(=O)/C2=C(\\Nc1ccc(N(C)C(=O)CN2CCN(C)CC2)cc1)c1ccccc1 [BIBF 1120]")
1.16
>>> result("COCC1(CO)C(=O)C2CCN1CC2 (configuration not stated) [Prima-1 Met]")
0
>>> result("Oc1ccc2c(c1)CC[C@H](c1ccccc1)[C@@H]2c1ccc(OCCN2CCCC2)cc1 [Lasofoxifene]")
0

All values here come from the supplement of paper PMC4862054.
